The entries below come with measured IC50 values attached.
# STUDY_SYSTEM: VLA4 (Homo sapiens, UniProt P05556+P13612)
# Construct: endogenous in cells
# Sequence (P13612 34-1032): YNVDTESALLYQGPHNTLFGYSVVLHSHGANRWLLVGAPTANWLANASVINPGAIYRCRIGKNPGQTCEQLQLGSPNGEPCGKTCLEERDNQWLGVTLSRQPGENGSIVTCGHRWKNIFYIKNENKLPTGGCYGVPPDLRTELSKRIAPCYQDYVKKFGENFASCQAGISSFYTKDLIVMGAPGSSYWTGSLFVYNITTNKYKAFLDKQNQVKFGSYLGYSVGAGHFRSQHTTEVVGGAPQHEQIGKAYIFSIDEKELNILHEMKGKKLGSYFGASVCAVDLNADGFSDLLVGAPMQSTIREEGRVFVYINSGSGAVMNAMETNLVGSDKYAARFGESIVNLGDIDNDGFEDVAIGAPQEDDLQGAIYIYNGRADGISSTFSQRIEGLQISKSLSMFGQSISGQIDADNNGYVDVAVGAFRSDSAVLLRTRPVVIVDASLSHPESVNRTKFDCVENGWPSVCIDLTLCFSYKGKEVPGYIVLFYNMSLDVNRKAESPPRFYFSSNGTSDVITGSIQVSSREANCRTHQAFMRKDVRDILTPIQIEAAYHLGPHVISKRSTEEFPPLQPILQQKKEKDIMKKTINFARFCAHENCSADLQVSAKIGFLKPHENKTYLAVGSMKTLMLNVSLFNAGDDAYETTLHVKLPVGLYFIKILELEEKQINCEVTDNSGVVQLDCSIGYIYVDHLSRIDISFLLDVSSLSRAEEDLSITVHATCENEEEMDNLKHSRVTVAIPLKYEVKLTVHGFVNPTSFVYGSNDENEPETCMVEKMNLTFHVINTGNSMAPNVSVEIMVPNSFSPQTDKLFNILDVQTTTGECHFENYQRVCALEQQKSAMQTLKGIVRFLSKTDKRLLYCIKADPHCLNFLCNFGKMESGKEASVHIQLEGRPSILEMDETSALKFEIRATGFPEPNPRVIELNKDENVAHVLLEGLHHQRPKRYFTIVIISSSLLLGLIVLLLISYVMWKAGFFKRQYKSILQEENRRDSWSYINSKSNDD
# Sequence (P05556 21-798): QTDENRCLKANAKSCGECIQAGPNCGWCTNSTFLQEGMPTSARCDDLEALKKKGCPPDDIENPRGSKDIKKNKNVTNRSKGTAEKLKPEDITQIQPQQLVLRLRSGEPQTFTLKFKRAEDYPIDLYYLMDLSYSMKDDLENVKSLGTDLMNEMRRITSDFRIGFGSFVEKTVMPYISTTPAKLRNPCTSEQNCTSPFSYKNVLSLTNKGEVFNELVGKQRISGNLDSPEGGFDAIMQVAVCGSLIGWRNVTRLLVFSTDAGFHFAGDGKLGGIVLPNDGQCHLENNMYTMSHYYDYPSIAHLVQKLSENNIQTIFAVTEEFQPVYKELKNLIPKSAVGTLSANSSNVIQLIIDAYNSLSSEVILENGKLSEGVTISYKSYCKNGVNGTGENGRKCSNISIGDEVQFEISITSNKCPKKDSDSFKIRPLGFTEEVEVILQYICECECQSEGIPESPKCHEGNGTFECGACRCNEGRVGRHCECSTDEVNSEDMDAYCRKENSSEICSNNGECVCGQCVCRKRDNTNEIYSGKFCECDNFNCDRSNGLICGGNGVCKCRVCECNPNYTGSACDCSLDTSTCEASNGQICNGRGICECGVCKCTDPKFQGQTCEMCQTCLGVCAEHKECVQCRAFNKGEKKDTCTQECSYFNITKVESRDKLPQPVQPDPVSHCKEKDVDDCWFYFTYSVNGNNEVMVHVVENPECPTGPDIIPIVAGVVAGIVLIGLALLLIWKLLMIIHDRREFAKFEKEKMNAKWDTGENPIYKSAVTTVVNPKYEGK
# ASSAY_EXPLANATION: Inhibition of VLA4-dependent adhesion to BSA-CS1 (labelled Ramos cells)
# CONDITION_PARAMETERS: binding of BCECF-AM labelled Ramos cells to CS1 peptide-coated wells, 2 mM MnCl2, 30 minutes at room temperature; IC50 range
# Experimental: For example, the cell adhesion inhibitory activity of these compounds may be measured by determining the concentration of inhibitor required to block the binding of VLA-4-expressing cells to fibronectin- or CS1-coated plates. […] Inhibition of binding is measured by quantitating the fluorescence or radioactivity bound to the plate for each of the various concentrations of test compound, as well as for controls containing no test compound. […]
READOUT_LABEL: IC50

MOLECULE | OBSERVED_VALUE
CC(C)CC(NC(=O)Cc1ccc(NC(=O)N2CCOCC2)cc1)C(=O)NC(CC(=O)O)c1ccc2c(c1)OCO2 (centres unmarked) [compound 1198] | > 10 µM
COc1ccc(C(CC(=O)O)NC(=O)C(CCCCNC(=O)OCc2ccccc2)NC(=O)Cc2ccc(NC(=O)Nc3ccccc3C)cc2)cc1OC (centres unmarked) [compound 1217] | < 0.05 µM
O=C(O)CC(NC(=O)C(CCN1CCOCC1)NC(=O)Cc1ccc(NC(=O)Nc2ccccc2)cc1)c1ccc2c(c1)OCO2 (centres unmarked) [compound 1191] | 0.05 to 10 µM
COC(=O)c1ccc(C(CC(=O)O)NC(=O)C(CCCCNS(C)(=O)=O)NC(=O)Cc2ccc(NC(=O)Nc3ccccc3C)cc2)cc1 (centres unmarked) [compound 1382] | < 0.05 µM
CC(C)CC(NC(=O)C1CCc2ccccc21)C(=O)NC(CC(=O)O)c1ccccc1 (centres unmarked) [compound 1189] | > 10 µM
CNC(=O)Nc1ccccc1C(=O)Nc1ccc(CC(=O)NC(CC(C)C)C(=O)NC(CC(=O)O)c2ccccc2)cc1 (centres unmarked) [compound 1029] | > 10 µM
CC(C)CC(NC(=O)Cc1cccc(N)c1)C(=O)NC(CC(=O)O)c1ccccc1 (centres unmarked) [compound 1030] | > 10 µM
CC(C)(C)OC(=O)NCC(NC(=O)Cc1ccc(NC(=O)Nc2ccccc2)cc1)C(=O)NC(CC(=O)O)c1ccccc1 (centres unmarked) [compound 1134] | 0.05 to 10 µM
CC(C)CC(NC(=O)Cc1ccc(NC(=O)NC2CCCCC2)cc1)C(=O)NC(CC(=O)O)c1ccc2c(c1)OCO2 (centres unmarked) [compound 1068] | 0.05 to 10 µM
COc1ccc(C(CC(=O)O)NC(=O)C(CC(C)C)NC(=O)Cc2ccccc2)cc1 (centres unmarked) [compound 1178] | 0.05 to 10 µM
COc1ccccc1C(CC(=O)O)NC(=O)C(CC(C)C)NC(=O)Cc1ccc(NC(=O)Nc2ccccc2)cc1 (centres unmarked) [compound 1069] | < 0.05 µM
CCC(C)C(NC(=O)Cc1ccccc1)C(=O)NC(CC(=O)O)c1ccccc1 (centres unmarked) [compound 1040] | 0.05 to 10 µM
O=C(O)CC(NC(=O)C(CSCc1ccccc1)NC(=O)Cc1ccccc1)c1ccccc1 (centres unmarked) [compound 1127] | 0.05 to 10 µM
CC(C)CC(NC(=O)Cc1ccccc1)C(=O)NC(CC(=O)O)c1ccc2c(c1)OCO2 (centres unmarked) [compound 1158] | 0.05 to 10 µM
CC(C)CC(NC(=O)Cc1ccc(O)c(O)c1)C(=O)NC(CC(=O)O)c1ccccc1 (centres unmarked) [compound 1098] | > 10 µM
CC(C)CC(NC(=O)Cc1ccc(NC(=O)c2ccccc2)cc1)C(=O)NC(CC(=O)O)c1ccc2c(c1)OCO2 (centres unmarked) [compound 1075] | 0.05 to 10 µM
CC(=O)Nc1ccc(CC(=O)NC(CC(C)C)C(=O)NC(CC(=O)O)c2ccccc2)cc1 (centres unmarked) [compound 1147] | 0.05 to 10 µM
CC(C)CC(NC(=O)Cc1ccc(O)cc1)C(=O)NC(CC(=O)O)c1ccccc1 (centres unmarked) [compound 1144] | 0.05 to 10 µM
CC(C)CC(NC(=O)c1ccccc1)C(=O)NC(CC(=O)O)c1ccccc1 (centres unmarked) [compound 1008] | > 10 µM
CC(C)CC(NC(=O)c1ccc2ccccc2n1)C(=O)NC(CC(=O)O)c1ccccc1 (centres unmarked) [compound 1149] | > 10 µM
CCNC(=O)Nc1ccc(CC(=O)NC(CC(C)C)C(=O)NC(CC(=O)O)c2ccc3c(c2)OCO3)cc1 (centres unmarked) [compound 1077] | 0.05 to 10 µM
CC(C)CC(NC(=O)Cc1ccc(O)c([N+](=O)[O-])c1)C(=O)NC(CC(=O)O)c1ccccc1 (centres unmarked) [compound 1112] | > 10 µM
COc1ccc(C(CC(=O)O)NC(=O)C(CC(C)C)NC(=O)Cc2ccc(NC(=O)Nc3ccccn3)cc2)cc1 (centres unmarked) [compound 1194] | 0.05 to 10 µM
CCc1ccccc1NC(=O)Nc1ccc(CC(=O)NC(CC(C)C)C(=O)NC(CC(=O)O)c2ccc3c(c2)OCO3)cc1 (centres unmarked) [compound 1200] | 0.05 to 10 µM
Cc1ccccc1NC(=O)Nc1ccc(CC(=O)NC(CC(C)C)C(=O)NC(CC(=O)O)c2ccc3c(c2)OCO3)cc1 (centres unmarked) [compound 1282] | < 0.05 µM
COc1cccc(C(CC(=O)O)NC(=O)C(CC(C)C)NC(=O)Cc2ccc(O)cc2)c1 (centres unmarked) [compound 1146] | 0.05 to 10 µM
COc1cc(CC(=O)NC(CC(C)C)C(=O)NC(CC(=O)O)c2ccccc2)cc(OC)c1O (centres unmarked) [compound 1111] | > 10 µM
Cc1ccccc1NC(=O)Nc1ccc(CC(=O)NC(CC(C)C)C(=O)NC(CC(=O)O)c2ccc3c(c2)OCO3)cc1 (centres unmarked) [compound 1179] | < 0.05 µM
CNC(=O)Nc1ccc(CC(=O)NC(CC(C)C)C(=O)NC(CC(=O)O)c2ccc3c(c2)OCO3)cc1 (centres unmarked) [compound 1064] | 0.05 to 10 µM
